procedure.details: Cmin in mouse at 10 mg/kg, po after 24 hrs
Assay type: ADME, organism-based
settings: in vivo, read-out: Cmin
reported.endpoint: concentration at 24 h (nM)
Give your result in nM as a bare value.

## Task Looking for the measured concentration at 24 h of "COc1ccc(-c2cc3c(N[C@@H]4CC[C@](C)(N)C4(C)C)c(C(N)=O)cnn3c2)cn1" , can you help?
## Result 300

----------
procedure.details: Cmax in Sprague-Dawley rat at 10 mg/kg, po
Type: ADME, organism-based
Parameters: dose 10 mg/kg, route oral
settings: in vivo
reported.endpoint: Cmax
Give the number first and the unit second.

## Task Looking for the measured Cmax of "COc1ccc(-c2cc3c(N[C@@H]4CC[C@](C)(N)C4(C)C)c(C(N)=O)cnn3c2)cn1" , can you help?
## Result 600 nM
